Recorded measurements of pIC50, one per entry
Molecular target: human Nav 1.8 (Homo sapiens, UniProt Q9Y5Y9)
Sequence (Q9Y5Y9 126-399 limits assumed): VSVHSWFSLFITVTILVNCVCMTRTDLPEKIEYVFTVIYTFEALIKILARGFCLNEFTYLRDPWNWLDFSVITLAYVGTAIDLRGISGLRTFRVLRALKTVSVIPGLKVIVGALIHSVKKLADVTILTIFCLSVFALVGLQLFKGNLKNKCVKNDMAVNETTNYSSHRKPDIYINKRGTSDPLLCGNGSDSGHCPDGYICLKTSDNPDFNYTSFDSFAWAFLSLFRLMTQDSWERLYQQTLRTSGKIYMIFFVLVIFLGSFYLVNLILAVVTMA
Sequence (Q9Y5Y9 660-890 limits assumed): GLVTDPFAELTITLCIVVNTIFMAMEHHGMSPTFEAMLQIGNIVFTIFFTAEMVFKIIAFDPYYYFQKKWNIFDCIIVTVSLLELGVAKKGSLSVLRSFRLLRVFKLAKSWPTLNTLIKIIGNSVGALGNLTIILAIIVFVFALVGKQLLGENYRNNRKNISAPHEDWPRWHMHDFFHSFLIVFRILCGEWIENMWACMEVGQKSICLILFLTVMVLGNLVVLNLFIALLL
Sequence (Q9Y5Y9 1148-1722 limits assumed): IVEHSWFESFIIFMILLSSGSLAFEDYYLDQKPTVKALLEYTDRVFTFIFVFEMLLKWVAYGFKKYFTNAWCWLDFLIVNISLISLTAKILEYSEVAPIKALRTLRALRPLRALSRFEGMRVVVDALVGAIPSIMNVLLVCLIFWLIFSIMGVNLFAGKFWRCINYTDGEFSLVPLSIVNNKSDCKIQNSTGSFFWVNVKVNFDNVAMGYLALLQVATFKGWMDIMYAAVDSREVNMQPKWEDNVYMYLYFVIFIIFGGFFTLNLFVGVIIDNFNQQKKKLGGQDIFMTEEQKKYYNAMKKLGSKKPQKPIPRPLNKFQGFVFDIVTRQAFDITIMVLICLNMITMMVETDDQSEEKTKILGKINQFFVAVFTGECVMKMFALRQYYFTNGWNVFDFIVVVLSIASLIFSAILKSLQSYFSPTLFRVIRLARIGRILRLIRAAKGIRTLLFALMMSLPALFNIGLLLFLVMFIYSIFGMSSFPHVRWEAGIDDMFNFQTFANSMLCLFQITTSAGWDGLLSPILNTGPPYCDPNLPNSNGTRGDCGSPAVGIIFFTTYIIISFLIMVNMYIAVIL
Assay: E-VIPR assay detecting and measuring Nav inhibition properties
Format: cell-based
Conditions: HEK cells expressing a truncated form of human Nav 1.8; compound numbers without "*" (not marked as run in the presence of human serum); read-out: measured IC50 value in the E-VIPR Assay
pIC50: −log10 of the molar value.

Examples with answers:
>>> print(df.to_string())
                                   compound                             tested_target      reported
0  COc1c([C@H]2[C@H](C(=O)Nc3ccnc(C(=O)N[C@H]4CCN(C)C4)c3)O[C@@](C)(C(F)(F)F)[C@H]2C)ccc(F)c1F  human Nav 1.8 (Homo sapiens, UniProt Q9Y5Y9)  7.00 to 8.00
1  COc1c([C@H]2[C@H](C(=O)Nc3ccnc(C(=O)N4CCNC(C)(C)C4)c3)O[C@@](C)(C(F)(F)F)[C@H]2C)ccc(F)c1F  human Nav 1.8 (Homo sapiens, UniProt Q9Y5Y9)        > 8.00
2  CNC(=O)c1cc(NC(=O)[C@@H]2O[C@@](C)(C(F)(F)F)[C@@H](C)[C@H]2c2ccc(F)c(F)c2O[C@H]2C[C@@H](O)C2)ccn1  human Nav 1.8 (Homo sapiens, UniProt Q9Y5Y9)  7.00 to 8.00
3  C[C@H]1[C@@H](c2ccc(F)c(F)c2OC2CC(=NO)C2)[C@H](C(=O)Nc2ccnc(C(N)=O)c2)O[C@@]1(C)C(F)(F)F (stereo partly drawn)  human Nav 1.8 (Homo sapiens, UniProt Q9Y5Y9)        > 8.00

input: Consider the compound `C[C@H]1[C@@H](c2ccc(F)c(F)c2OCC#N)[C@H](C(=O)Nc2ccnc(C(N)=O)c2)O[C@@]1(C)C(F)(F)F` . State its measured pIC50.
output: > 8.00

input: Consider the compound `C[C@H]1[C@@H](c2ccc(F)c(F)c2OC/C(=N\O)C(C)(C)C)[C@H](C(=O)Nc2ccnc(C(N)=O)c2)O[C@@]1(C)C(F)(F)F` . State its measured pIC50.
output: > 8.00

---

Target: human Nav 1.8 (Homo sapiens, UniProt Q9Y5Y9)
Test: E-VIPR assay detecting and measuring Nav inhibition properties
Assay type: cell-based
Details: HEK cells expressing a truncated form of human Nav 1.8; compound numbers without "*" (not marked as run in the presence of human serum); read-out: measured IC50 value in the E-VIPR Assay
pIC50: −log10 of the molar value.
Recorded measurements of pIC50, one per entry

Examples with answers:
>>> df
                                   compound      reported
0  COc1c([C@H]2[C@H](C(=O)Nc3ccnc(C(=O)N4CC5COCC(C4)N5C)c3)O[C@@](C)(C(F)(F)F)[C@H]2C)ccc(F)c1F        > 8.00
1  CCO[C@H]1CNC[C@@H]1NC(=O)c1cc(NC(=O)[C@@H]2O[C@@](C)(C(F)(F)F)[C@@H](C)[C@H]2c2ccc(F)c(F)c2OC)ccn1  7.00 to 8.00
2  C[C@H]1[C@@H](c2ccc(F)c(F)c2OC2COC2)[C@H](C(=O)Nc2ccnc(C(N)=O)c2)O[C@@]1(C)C(F)(F)F        > 8.00
3  COc1c([C@H]2[C@H](C(=O)Nc3ccnc(C(=O)N4CCNC[C@@H]4C)c3)O[C@@](C)(C(F)(F)F)[C@H]2C)ccc(F)c1F        > 8.00
4  CNCCN(C)C(=O)c1cc(NC(=O)[C@@H]2O[C@@](C)(C(F)(F)F)[C@@H](C)[C@H]2c2ccc(F)c(F)c2OC)ccn1        > 8.00
5  C[C@H]1[C@@H](c2ccc(F)c(F)c2OCC(=NO)C2(F)CC2)[C@H](C(=O)Nc2ccnc(C(N)=O)c2)O[C@@]1(C)C(F)(F)F        > 8.00

input: Under human Nav 1.8 (Homo sapiens, UniProt Q9Y5Y9): report pIC50 of `COc1c([C@H]2[C@H](C(=O)Nc3ccnc(C(=O)N4CCC45CNC5)c3)O[C@@](C)(C(F)(F)F)[C@H]2C)ccc(F)c1F` .
output: 7.00 to 8.00

input: Under human Nav 1.8 (Homo sapiens, UniProt Q9Y5Y9): report pIC50 of `COc1c([C@H]2[C@H](C(=O)Nc3ccnc(C(=O)N[C@H]4CNC[C@@H]4OC)c3)O[C@@](C)(C(F)(F)F)[C@H]2C)ccc(F)c1F` .
output: 7.00 to 8.00

input: Under human Nav 1.8 (Homo sapiens, UniProt Q9Y5Y9): report pIC50 of `COc1c([C@H]2[C@H](C(=O)Nc3ccnc(C(=O)N4C[C@@H](C)N(C)C[C@H]4C)c3)O[C@@](C)(C(F)(F)F)[C@H]2C)ccc(F)c1F` .
output: 7.00 to 8.00

input: Under human Nav 1.8 (Homo sapiens, UniProt Q9Y5Y9): report pIC50 of `CNC(=O)c1cc(NC(=O)[C@@H]2O[C@@](C)(C(F)(F)F)[C@@H](C)[C@H]2c2ccc(F)c(F)c2OCCN2CC3(COC3)C2)ccn1` .
output: 7.00 to 8.00

input: Under human Nav 1.8 (Homo sapiens, UniProt Q9Y5Y9): report pIC50 of `C[C@H]1[C@@H](c2ccc(F)c(F)c2OCCn2ccnc2)[C@H](C(=O)Nc2ccnc(C(N)=O)c2)O[C@@]1(C)C(F)(F)F` .
output: > 8.00

input: Under human Nav 1.8 (Homo sapiens, UniProt Q9Y5Y9): report pIC50 of CON=C(C)COc1c([C@H]2[C@H](C(=O)Nc3ccnc(C(N)=O)c3)O[C@@](C)(C(F)(F)F)[C@H]2C)ccc(F)c1F [Compound 193] .
output: > 8.00

---

Recorded measurements of pIC50, one per entry
Biological target: human Nav 1.8 (Homo sapiens, UniProt Q9Y5Y9)
Assay: E-VIPR assay detecting and measuring Nav inhibition properties
Format: cell-based
Conditions: HEK cells expressing a truncated form of human Nav 1.8; compound numbers without "*" (not marked as run in the presence of human serum); read-out: measured IC50 value in the E-VIPR Assay
pIC50: −log10 of the molar value.

Examples with answers:
COMPOUND	TESTED_TARGET	ASSAY_READOUT	REPORTED
COc1c([C@H]2[C@H](C(=O)Nc3ccnc(C(=O)N4CC5(CCCN5)C4)c3)O[C@@](C)(C(F)(F)F)[C@H]2C)ccc(F)c1F [Compound 230]	human Nav 1.8 (Homo sapiens, UniProt Q9Y5Y9)	pIC50	> 8.00
CC[C@H](CO)COc1c([C@H]2[C@H](C(=O)Nc3ccnc(C(N)=O)c3)O[C@@](C)(C(F)(F)F)[C@H]2C)ccc(F)c1F (single isomer, unassigned) [Compound 92]	human Nav 1.8 (Homo sapiens, UniProt Q9Y5Y9)	pIC50	7.00 to 8.00
COc1c([C@H]2[C@H](C(=O)Nc3ccnc(C(=O)N4C5CNCC4C5)c3)O[C@@](C)(C(F)(F)F)[C@H]2C)ccc(F)c1F [Compound 237]	human Nav 1.8 (Homo sapiens, UniProt Q9Y5Y9)	pIC50	7.00 to 8.00
C[C@H](O)COc1c([C@H]2[C@H](C(=O)Nc3ccnc(C(N)=O)c3)O[C@@](C)(C(F)(F)F)[C@H]2C)ccc(F)c1F [Compound 153]	human Nav 1.8 (Homo sapiens, UniProt Q9Y5Y9)	pIC50	> 8.00

input: Consider the compound C=C(/C=C/Oc1c([C@H]2[C@H](C(=O)Nc3ccnc(C(N)=O)c3)O[C@@](C)(C(F)(F)F)[C@H]2C)ccc(F)c1F)C(F)(F)F [Compound 172] . State its measured pIC50.
output: 7.00 to 8.00

input: Consider the compound C[C@H]1[C@@H](c2ccc(F)c3c2CCC3(F)F)[C@H](C(=O)Nc2ccnc(C(N)=O)c2)O[C@@]1(C)C(F)(F)F (single isomer, unassigned) [Compound 149] . State its measured pIC50.
output: > 8.00

---

Recorded measurements of IC50, one per entry
Target: human Nav 1.8 (Homo sapiens, UniProt Q9Y5Y9)
Assay: E-VIPR assay detecting and measuring Nav inhibition properties
Assay type: cell-based
Settings: HEK cells expressing a truncated form of human Nav 1.8; compound numbers without "*" (not marked as run in the presence of human serum); read-out: measured IC50 value in the E-VIPR Assay

Examples with answers:
COMPOUND	REPORTED
C[C@H]1[C@@H](c2ccc(F)c(F)c2OCCN2C[C@H]3C[C@@H]2CO3)[C@H](C(=O)Nc2ccnc(C(N)=O)c2)O[C@@]1(C)C(F)(F)F (relative stereo) [Compound 47]	10 to 100 nM
C[C@H]1[C@@H](c2ccc(F)c(F)c2OCCN2CCOC3CC32)[C@H](C(=O)Nc2ccnc(C(N)=O)c2)O[C@@]1(C)C(F)(F)F (some centres unmarked) [Compound 50]	< 10 nM
COc1c([C@@H]2[C@@H](C(=O)Nc3ccnc(C(N)=O)c3)O[C@](C)(C(F)(F)F)[C@@H]2C)ccc(F)c1CO (single isomer, unassigned) [Compound 137]	≥ 1000 nM
COc1c([C@H]2[C@H](C(=O)Nc3ccnc(C(=O)N4C[C@H]5C[C@@H]4CN5C)c3)O[C@@](C)(C(F)(F)F)[C@H]2C)ccc(F)c1F [Compound 279]	10 to 100 nM
COc1c([C@H]2[C@H](C(=O)Nc3cc(C(=O)N4CCN(C)CC4)ncc3C)O[C@@](C)(C(F)(F)F)[C@H]2C)ccc(F)c1F [Compound 12]	10 to 100 nM
CO[C@H]1CCN(CCOc2c([C@H]3[C@H](C(=O)Nc4ccnc(C(N)=O)c4)O[C@@](C)(C(F)(F)F)[C@H]3C)ccc(F)c2F)C1 [Compound 129]	10 to 100 nM
COC[C@H]1CN(C(=O)c2cc(NC(=O)[C@@H]3O[C@@](C)(C(F)(F)F)[C@@H](C)[C@H]3c3ccc(F)c(F)c3OC)ccn2)CCN1 [Compound 248]	< 10 nM
COc1c([C@H]2[C@H](C(=O)Nc3ccnc(C(=O)N4C[C@H](F)[C@@H](N(C)C)C4)c3)O[C@@](C)(C(F)(F)F)[C@H]2C)ccc(F)c1F [Compound 301]	10 to 100 nM

input: Consider the compound COCc1c(F)ccc([C@@H]2[C@@H](C(=O)Nc3ccnc(C(N)=O)c3)O[C@](C)(C(F)(F)F)[C@@H]2C)c1OC (single isomer, unassigned) [Compound 139] . State its measured IC50.
output: ≥ 1000 nM

input: Consider the compound COc1c([C@H]2[C@H](C(=O)Nc3cc(C(=O)N4CCN(C)CC4)ncc3F)O[C@@](C)(C(F)(F)F)[C@H]2C)ccc(F)c1F [Compound 9] . State its measured IC50.
output: < 10 nM

input: Consider the compound C[C@H]1[C@@H](c2ccc(F)c(F)c2OCC2COC2)[C@H](C(=O)Nc2ccnc(C(N)=O)c2)O[C@@]1(C)C(F)(F)F [Compound 70] . State its measured IC50.
output: < 10 nM
